src = the OPERA property sets (Mansouri et al. 2018)

ENDPOINT: logP
Answer using only a numeral; do not append any unit.

Given `COc1cccc2ccccc12` , respond with its logP. 3.45

// fetch logP given entry `C=Cc1ccc(CC)cc1` 4.19

Query logP for COc1ccccc1OCC(O)COC(N)=O (configuration not stated) 0.61

Please give measured logP of the following entry: `Nc1ccc2c(c1)C(=O)c1ccccc1C2=O` 3.31

Specify measured logP for `Cc1cc(=O)nc(C(C)C)[nH]1` . 0.55

Name the recorded logP of the item `Cc1ccc(Cl)c(O)c1` in your answer. 2.9

Supply measured logP of `C=C(C)C(=O)OCC(CC)(COC(=O)C(=C)C)COC(=O)C(=C)C` in your reply. 4.39

Recall and state the measured logP for ClCC(Br)CBr (configuration not stated) . 2.96

Check the records and state logP for `ClC(Cl)C(Cl)C(Cl)Cl` 3.23

State its logP for this compound: `Oc1ccc(Cc2ccccc2)cc1` 3.47

Supply measured logP of ClC1C(Br)C(Br)C(Br)C(Br)C1Br (configuration not stated) in your reply. 4.72

Read the entry OC(c1ccccc1)c1ccc(Cl)cc1 (configuration not stated) and write its reported logP. 3.61

Please give the documented logP of `O=P(OC(CCl)CCl)(OC(CCl)CCl)OC(CCl)CCl` 3.65

Report logP for C=CC1CC=CCC1 (configuration not stated) 3.93

Supply measured logP of `C=CC(=C)CCC=C(C)C` in your reply. 4.17

Tell us which logP value is on record for `CC(C)[N+](=O)[O-]` 0.93

Give recorded logP. `S=C(NC1CCCCC1)NC1CCCCC1` 3.69

Assign logP to the following record: `BrCC(CBr)(CBr)CBr` 3.99

Read the entry `CCN(CC)c1ccc2c(-c3ccccc3C(=O)O)c3ccc(N(CC)CC)cc3[o+]c2c1.[Cl-]` and write its reported logP. 1.95

Find the measured logP of `C=CCOP(=O)(OCC=C)OCC=C` and report it. 1.76

For `C=CC(OC(C)=O)OC(C)=O` , write its logP. 0.78

Please give measured logP of the following entry: `CC(C)CN1CCOCC1` 1.17

Look up logP of `Nc1cccc2c1C(=O)c1ccccc1C2=O` and report it. 3.74

Answer with the recorded logP of `OCc1ccc(Cl)c(Cl)c1` only. 2.74

Kindly indicate its recorded logP. Item: `ClCC(Cl)(Cl)CCl` 2.72

Dear colleague, please send me the reported logP for CCCCC(CC)CN1C(=O)C2C(C1=O)C1(C(C)C)C=CC2(C)CC1 (configuration not stated) when you can. 5.96

Let me know recorded logP for OCC(O)c1ccccc1Cl (configuration not stated) , thanks. 1.17

// Input: `Oc1cc(Cl)ccc1Oc1ccc(Cl)cc1Cl` . Output its logP only. 4.76

Respond only with logP recorded for `CCNc1cccc2ccccc12` 3.45

Specify measured logP for `O=C1c2ccccc2-c2cccc3cccc1c23` . 4.81

Fill in logP for record `N#CSCSc1nc2ccccc2s1` 3.3

Return value of logP for input `CC(C)(C)c1ccc(O)c(C(C)(C)C)c1` , no commentary. 5.19

Look up and report measured logP for this entry: `O=[N+]([O-])c1ccc(Cl)cc1C(F)(F)F` 3.2

Respond only with logP recorded for `Cc1cc(Cc2cc(C)cc(C(C)(C)C)c2O)c(O)c(C(C)(C)C)c1` 6.25

Provide measured logP value, entry: `COc1ccc(N)c([N+](=O)[O-])c1` 1.94

Answer with the recorded logP of `COc1ccc(C(=O)c2ccccc2)c(O)c1` only. 3.79

Dear colleague, please send me the reported logP for `CC(C)=CC=C(C)C` when you can. 3.5

Read the entry `CC(=O)CC(=O)Nc1ccc(-c2ccc(NC(=O)CC(C)=O)c(C)c2)cc1C` and write its reported logP. 1.75

Assign logP to the following record: `C=Cc1cccc(CC)c1` 4.11

Fill in reported logP for this entry: `Cc1ccc(O)cc1[N+](=O)[O-]` 2.18

State its logP: `CC(C)(C)c1cc(C(C)(C)C)c(O)c(C(C)(C)C)c1` 6.06

For `COC(=O)c1ccccc1C(=O)c1ccccc1` , write its logP. 2.7

Identify the reported logP for the following entry. `CC(C)CCOCCC(C)C` 4.25

Quick one: give measured logP for `Cc1ccc(C(C)(C)C)cc1` 5.17

Identify measured logP associated with `CCCCOCCOP(=O)(OCCOCCCC)OCCOCCCC` 3.75

Write down logP measured for item `ClC(c1ccccc1)(c1ccccc1)c1ccccc1` 5.25

State, in one line, measured logP of `CCc1ccccc1[N+](=O)[O-]` 2.58

Identify logP associated with the compound CC(CCl)OP(=O)(OC(C)CCl)OC(C)CCl (configuration not stated) 2.59

Determine its reported logP: `ClCC(Cl)CCl` 2.27

Return value of logP for input `O=C1CCCCCCCCCCCN1` , no commentary. 2.92

Given the compound `BrC(Br)Br` , write its reported logP. 2.4

Tell me its logP given `C=C(C)CC(C)(C)C` as the entry. 4.55

Query logP for `COc1c(N)cccc1[N+](=O)[O-]` 1.78

Query logP for `CNc1cccc(C)c1` 2.19

For O=C1CCCCC1C1=CCCCC1 (configuration not stated) , write its logP. 3.17

Specify logP for CC1CC(C)(C)CC(OOC(C)(C)C)(OOC(C)(C)C)C1 (configuration not stated) and stop. 6.53

Recall and state the measured logP for `O=P(OCCCl)(OCCCl)OCCCl` . 1.44

Please look at this compound and report its logP: `S=C(SSSSC(=S)N1CCCCC1)N1CCCCC1` 2.8

Provide one value: measured logP of `CC(C)(OOC(C)(C)c1ccccc1)c1ccccc1` 5.5

Identify measured logP corresponding to `C=CC(=C)C` 2.42

Input `C=Cc1ccccn1` , output reported logP. 1.54

State its logP for this compound: `Nc1ccc(Cc2ccc(N)c(Cl)c2)cc1Cl` 3.91
